Measured competition rate by item
Target: T1, human MSLN-FL-his protein (human, UniProt Q13421 296-580)
T1 construct: made in HEK293E cells, purified on nickel column; also called hMSLN-FL-his; human MSLN full-length protein; not shown: His tag
T1 sequence (Q13421 other isoform, or with tags, fused parts or gaps): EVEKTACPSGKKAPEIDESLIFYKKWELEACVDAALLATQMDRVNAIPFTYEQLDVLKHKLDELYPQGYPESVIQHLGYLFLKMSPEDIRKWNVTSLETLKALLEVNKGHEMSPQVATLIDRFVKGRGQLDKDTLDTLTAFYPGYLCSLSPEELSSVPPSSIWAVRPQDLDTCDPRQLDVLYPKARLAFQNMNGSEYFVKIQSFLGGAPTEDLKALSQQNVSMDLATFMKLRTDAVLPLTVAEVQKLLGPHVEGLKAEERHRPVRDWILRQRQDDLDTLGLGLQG
Assay: competitive ELISA; coated 2ug/ml F3.23.1
Record the value in %, omitting the unit from your answer.

Examples with their reported competition rate follow.
I would be grateful if you could share the reported competition rate for S009-F3.80.22 (antibody, human IgG1, kappa, V domains shown, human-murine chimeric antibody, human IgG1/kappa constant regions) VH: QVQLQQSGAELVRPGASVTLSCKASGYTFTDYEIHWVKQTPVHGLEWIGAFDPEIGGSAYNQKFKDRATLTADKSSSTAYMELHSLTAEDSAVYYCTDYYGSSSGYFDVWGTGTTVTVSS VL: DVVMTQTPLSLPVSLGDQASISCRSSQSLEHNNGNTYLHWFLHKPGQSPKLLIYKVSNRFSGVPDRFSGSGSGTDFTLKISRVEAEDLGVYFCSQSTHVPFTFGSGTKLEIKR .
-109

I would be grateful if you could share the reported competition rate for S009-F3.45.21 (antibody, human IgG1, kappa, V domains shown, human-murine chimeric antibody, human IgG1/kappa constant regions) VH: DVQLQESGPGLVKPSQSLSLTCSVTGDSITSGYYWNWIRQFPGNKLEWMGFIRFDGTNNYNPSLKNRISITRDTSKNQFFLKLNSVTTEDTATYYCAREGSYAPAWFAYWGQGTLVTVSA VL: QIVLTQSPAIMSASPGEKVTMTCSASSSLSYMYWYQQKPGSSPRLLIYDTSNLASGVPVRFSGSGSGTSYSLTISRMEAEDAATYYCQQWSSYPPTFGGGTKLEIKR .
99

I would be grateful if you could share the reported competition rate for S009-F3.74.20 (antibody, human IgG1, kappa, V domains shown, human-murine chimeric antibody, human IgG1/kappa constant regions) VH: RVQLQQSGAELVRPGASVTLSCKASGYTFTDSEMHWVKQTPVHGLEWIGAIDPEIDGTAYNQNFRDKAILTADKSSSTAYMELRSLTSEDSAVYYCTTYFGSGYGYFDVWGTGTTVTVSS VL: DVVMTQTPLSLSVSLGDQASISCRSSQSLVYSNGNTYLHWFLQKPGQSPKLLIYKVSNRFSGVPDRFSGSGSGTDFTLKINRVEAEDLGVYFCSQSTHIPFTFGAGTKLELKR .
100

Please examine the following record next.
I would be grateful if you could share the reported competition rate for S009-F4-127.10 (antibody, human IgG1, kappa, V domains shown, human-murine chimeric antibody, human IgG1/kappa constant regions) VH: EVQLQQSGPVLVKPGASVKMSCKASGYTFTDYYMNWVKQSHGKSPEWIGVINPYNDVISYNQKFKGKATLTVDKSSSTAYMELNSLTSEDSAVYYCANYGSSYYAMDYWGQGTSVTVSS VL: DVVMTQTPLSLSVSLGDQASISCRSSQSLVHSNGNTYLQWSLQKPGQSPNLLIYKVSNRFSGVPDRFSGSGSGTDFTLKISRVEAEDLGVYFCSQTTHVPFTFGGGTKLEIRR .
88

Where do these numbers come from? They come from patent US20250250357A1.
